assay.system: HER2 WT (Homo sapiens)
Sequence (P04626 23-1255): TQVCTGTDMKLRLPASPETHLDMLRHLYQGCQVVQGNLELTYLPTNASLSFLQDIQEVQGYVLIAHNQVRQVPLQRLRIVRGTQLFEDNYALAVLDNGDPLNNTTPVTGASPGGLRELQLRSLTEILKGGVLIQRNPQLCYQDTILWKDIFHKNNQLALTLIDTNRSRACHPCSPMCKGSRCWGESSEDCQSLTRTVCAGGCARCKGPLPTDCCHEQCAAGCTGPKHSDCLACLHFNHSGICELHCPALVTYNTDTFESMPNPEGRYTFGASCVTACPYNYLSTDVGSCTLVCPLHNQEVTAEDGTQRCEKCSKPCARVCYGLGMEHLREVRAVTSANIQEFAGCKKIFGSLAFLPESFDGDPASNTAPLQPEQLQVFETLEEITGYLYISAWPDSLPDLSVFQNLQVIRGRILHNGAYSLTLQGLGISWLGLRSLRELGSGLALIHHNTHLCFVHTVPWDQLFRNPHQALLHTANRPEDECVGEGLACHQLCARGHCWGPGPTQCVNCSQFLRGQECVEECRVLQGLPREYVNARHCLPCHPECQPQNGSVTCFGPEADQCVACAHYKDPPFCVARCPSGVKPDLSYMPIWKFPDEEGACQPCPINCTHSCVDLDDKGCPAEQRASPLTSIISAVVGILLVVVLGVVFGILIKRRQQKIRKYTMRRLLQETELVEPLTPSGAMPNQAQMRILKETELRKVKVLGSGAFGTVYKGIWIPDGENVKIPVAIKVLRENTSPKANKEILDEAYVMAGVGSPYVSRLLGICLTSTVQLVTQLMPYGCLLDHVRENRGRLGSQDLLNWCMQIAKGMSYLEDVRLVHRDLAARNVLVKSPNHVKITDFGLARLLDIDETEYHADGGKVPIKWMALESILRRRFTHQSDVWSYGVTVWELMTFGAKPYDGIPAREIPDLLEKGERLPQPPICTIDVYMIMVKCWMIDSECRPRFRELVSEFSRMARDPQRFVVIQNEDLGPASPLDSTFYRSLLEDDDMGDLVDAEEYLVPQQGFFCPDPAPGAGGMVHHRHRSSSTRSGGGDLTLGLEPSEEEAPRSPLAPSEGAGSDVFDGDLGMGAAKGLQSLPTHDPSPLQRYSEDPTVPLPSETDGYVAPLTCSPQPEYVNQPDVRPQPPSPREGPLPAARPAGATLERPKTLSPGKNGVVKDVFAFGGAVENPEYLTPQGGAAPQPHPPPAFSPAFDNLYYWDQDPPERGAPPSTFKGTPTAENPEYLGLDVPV
assay.text: Activity for inhibiting HER2 (Table B), HER2 WT
Type: cell-based
condition.notes: text lists of compounds; read-out: IC50 value for inhibiting wild-type HER2
pIC50: −log10 of the molar value.
Items are presented alongside their recorded pIC50.

Look over these answered cases.
INSERT INTO measurements (compound, observed_value) VALUES
  ('C=CC(=O)Nc1cc2c(Nc3cc(Cl)c(OCc4ccccn4)cc3F)ncnc2cc1OC1CCN(C)C1 (stereo not drawn)', '≥ 8.00'),
  ('C=CC(=O)Nc1cc2c(Nc3ccc(OCc4ccccn4)c(Cl)c3)ncnc2cc1OCCCN1CC2CC1CO2 (stereo not drawn)', '≥ 8.00'),
  ('C=CC(=O)Nc1cc2c(Nc3ccc(OCc4ccccn4)c(Cl)c3)ncnc2cc1OCC1(N(C)C)CC1', '≥ 8.00'),
  ('C=CC(=O)Nc1cc2c(Nc3ccc(OCc4ccccn4)c(Cl)c3)ncnc2cc1N1CCN(C)CC1', '≥ 7.30');

Q. Answer with reported pIC50 of C=CC(=O)Nc1cc2c(Nc3ccc(OCc4cccc(F)c4)c(Cl)c3)ncnc2cc1OCCCN1CCOCC1
A. ≥ 7.70

Q. Answer with reported pIC50 of C=CC(=O)Nc1cc2c(Nc3ccc(OCc4ccccn4)c(Cl)c3)ncnc2cc1OCCn1ccnc1
A. ≥ 7.70

Q. Answer with reported pIC50 of CC#CC(=O)Nc1cc2c(Nc3ccc(OCc4ccccn4)c(Cl)c3)ncnc2cc1N(C)CCN1CCOCC1
A. ≥ 7.30

Q. Answer with reported pIC50 of C=CC(=O)Nc1cc2c(Nc3ccc(Oc4ccccc4)cc3)ncnc2cc1OCCN1CCOCC1
A. ≥ 7.30

====

assay.system: EGFR V3 (Homo sapiens, UniProt P00533, DELINS30-297G)
Construct: expressed in transfected cells; host or cells: BaF3 (murine pro-B), retroviral pMXs-IRES-Blasticidin
Sequence (P00533 with tags, fused parts or gaps DELINS30-297G): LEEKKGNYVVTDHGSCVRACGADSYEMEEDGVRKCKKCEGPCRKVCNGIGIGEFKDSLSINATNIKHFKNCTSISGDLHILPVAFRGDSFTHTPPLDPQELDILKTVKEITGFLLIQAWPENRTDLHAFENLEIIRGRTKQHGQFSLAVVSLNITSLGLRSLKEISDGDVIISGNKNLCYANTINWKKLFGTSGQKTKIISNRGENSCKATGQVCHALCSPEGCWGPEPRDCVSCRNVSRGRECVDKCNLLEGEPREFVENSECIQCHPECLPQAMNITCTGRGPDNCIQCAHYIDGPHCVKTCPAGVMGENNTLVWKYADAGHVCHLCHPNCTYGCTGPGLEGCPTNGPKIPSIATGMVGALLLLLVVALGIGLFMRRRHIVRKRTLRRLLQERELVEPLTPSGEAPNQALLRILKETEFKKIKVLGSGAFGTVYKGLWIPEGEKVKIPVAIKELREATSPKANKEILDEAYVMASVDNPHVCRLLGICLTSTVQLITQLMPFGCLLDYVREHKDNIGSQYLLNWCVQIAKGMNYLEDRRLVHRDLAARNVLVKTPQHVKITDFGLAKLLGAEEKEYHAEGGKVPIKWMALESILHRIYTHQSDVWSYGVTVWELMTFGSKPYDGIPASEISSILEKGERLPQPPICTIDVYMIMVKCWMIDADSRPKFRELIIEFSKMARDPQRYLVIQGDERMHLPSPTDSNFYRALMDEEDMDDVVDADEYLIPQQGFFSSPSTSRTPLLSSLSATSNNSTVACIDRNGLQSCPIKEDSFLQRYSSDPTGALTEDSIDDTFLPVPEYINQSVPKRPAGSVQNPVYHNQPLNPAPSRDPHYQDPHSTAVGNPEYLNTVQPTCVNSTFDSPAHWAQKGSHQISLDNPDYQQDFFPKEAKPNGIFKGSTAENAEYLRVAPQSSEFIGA
assay.text: Activity for inhibiting EGFR (Table A), EGFR V3 (EGFR-Viii)
Type: cell-based
condition.notes: read-out: EGFR V3, potency code (IC50)
property.measured: IC50

Look over these answered cases.
INSERT INTO assay_data (compound, assay_system, observed_value) VALUES
  ('C=CC(=O)Nc1cc2c(Nc3ccc(OCc4ccccn4)c(Cl)c3)ncnc2cc1OC[C@H]1C[C@@H]2CN(C)C[C@@H]2C1', 'EGFR V3 (Homo sapiens, UniProt P00533, DELINS30-297G)', '30 to 50 nM'),
  ('C=CC(=O)Nc1cc2c(Nc3ccc(OCc4ccccn4)c(Cl)c3)ncnc2cc1C#C[C@@H]1[C@H]2CN(C)C[C@@H]12', 'EGFR V3 (Homo sapiens, UniProt P00533, DELINS30-297G)', '30 to 50 nM'),
  ('C=CC(=O)Nc1cc2c(Nc3ccc(OCc4cccc(F)n4)c(Cl)c3)ncnc2cc1OCCN1CC(OC)C1', 'EGFR V3 (Homo sapiens, UniProt P00533, DELINS30-297G)', '30 to 50 nM'),
  ('C=CC(=O)Nc1cc2c(Nc3ccc(OCc4cccc(F)n4)c(Cl)c3)ncnc2cc1OCCN1CCOCC1', 'EGFR V3 (Homo sapiens, UniProt P00533, DELINS30-297G)', '30 to 50 nM'),
  ('C=CC(=O)Nc1cc2c(Nc3ccc(OCc4ccccn4)cc3)ncnc2cc1OCCn1ccnc1', 'EGFR V3 (Homo sapiens, UniProt P00533, DELINS30-297G)', '50 to 100 nM'),
  ('C=CC(=O)Nc1cc2c(Nc3ccc(OCc4cccc(F)n4)c(Cl)c3)ncnc2cc1OCCN1CCN(C)CC1', 'EGFR V3 (Homo sapiens, UniProt P00533, DELINS30-297G)', '30 to 50 nM'),
  ('C=CC(=O)Nc1cc2c(Nc3ccc(OCc4cccc(F)n4)c(Cl)c3)ncnc2cc1OCCCN1CCOCC1', 'EGFR V3 (Homo sapiens, UniProt P00533, DELINS30-297G)', '30 to 50 nM'),
  ('C=CC(=O)Nc1cc2c(Nc3ccc(OCc4ccccn4)cc3)ncnc2cc1OCCN1CCC(N(C)C)CC1', 'EGFR V3 (Homo sapiens, UniProt P00533, DELINS30-297G)', '50 to 100 nM');

Q. Answer with reported IC50 of C=CC(=O)Nc1cc2c(Nc3ccc(OCc4ccccn4)c(Cl)c3)ncnc2cc1OCCN1CCC(N(C)C)CC1
A. 50 to 100 nM

Q. Answer with reported IC50 of CC#CC(=O)Nc1cc2c(Nc3cc(Cl)c(OCc4cccc(F)c4)cc3F)ncnc2cc1OCCN1CC2CCC(C1)O2
A. 100 to 200 nM

Q. Answer with reported IC50 of C=CC(=O)Nc1cc2c(Nc3ccc(OCc4cccc(F)c4)c(Cl)c3)ncnc2cc1OCCCN1C[C@@H]2C[C@H]1CO2
A. 100 to 200 nM

Q. Answer with reported IC50 of C=CC(=O)Nc1cc2c(Nc3cc(Cl)c(OCc4ccccn4)cc3F)ncnc2cc1OC1CCN(C)C1 (centres unmarked)
A. 10 to 20 nM

Q. Answer with reported IC50 of C=CC(=O)Nc1cc2c(Nc3ccc(OCc4ccccn4)c(Cl)c3)ncnc2cc1OCC1CCCN1C (centres unmarked)
A. 30 to 50 nM

Q. Answer with reported IC50 of C=CC(=O)Nc1cc2c(Nc3cc(Cl)c(OCc4cccc(F)c4)cc3F)ncnc2cc1OCCN1CC2CCC(C1)O2
A. 50 to 100 nM
